These measurements were taken from ChEMBL document CHEMBL3507680.

Assay: Human HepG2 cell viability assay in 384 well format
Type: toxicity, cell-based
Parameters: dose 125 nL, time 70.5 hour; concentration not given beside the values
Details: HepG2 cells, read-out: Inhibition
cytotoxicity at 70.5 h values by entry
assay.metric: cytotoxicity at 70.5 h

1. COc1ccnc(NC(=O)c2cscc2C)c1    -2.28%
2. O=C(c1cnc(-c2cnccn2)s1)N1CCCC1Cn1cccn1 (stereo not drawn)    -3.28%
3. Cn1cc(C[C@H]2[C@H](O)CCN2CC2CCOCC2)cn1    -6.28%
4. CCc1cn[nH]c1C1CCN(C(=O)c2cccc(O)c2C)CC1    -12.3%
5. Cc1ccc(CCCC(=O)N(C)CCN2CCOCC2)cc1    13.8%
6. O=C(CCc1cc2n(n1)CCCN(CCc1ccccc1)C2)NC1CC1    -11%
7. O=C1CC(NCc2ccncc2)CN1Cc1cccc(F)c1 (stereo not drawn)    1.94%
8. Cc1noc(C(C)C)c1C(=O)NCc1ccc2c(c1)OCCO2    -5.36%
9. c1csc(-c2nc(CN3CCn4c(nnc4C4CC4)C3)co2)c1    -13.1%
10. O=C(NC1CC1)[C@H]1C[C@@H]2CCN(CCc3ccccc3)C[C@H]2O1    -11.8%
11. COc1ccccc1[S+]([O-])CC(=O)NCc1cc(F)cc(F)c1 (stereo not drawn)    2.23%
12. CN(C)C1Cc2ccccc2N(S(=O)(=O)c2ccc(C#N)cc2)C1 (stereo not drawn)    -7.27%
13. O=C(NCc1cn2cccnc2n1)C1CC(=O)N(Cc2cccnc2)C1 (stereo not drawn)    2.43%
14. CCc1nc(CN(C)C2CCN(CCNS(=O)(=O)CC)C2)no1 (stereo not drawn)    46.2%
15. O=C(c1cccc(C2CCNC2)c1)N1CCC(N2CCC(O)CC2)CC1 (stereo not drawn)    44.2%
16. Cc1ccc(CN2CCC3(CC2)COCCN3S(C)(=O)=O)o1    -4.45%
17. O=C(c1cc(-c2ccn(CC3CC3)n2)n2ccccc12)N1CCCO1    -3.08%
18. Cc1csc2c(C3CCN(C(=O)Cn4cncn4)CC3)nc(C)n12    -2.36%
19. Nc1cc(-c2cccs2)nn(CC(=O)N2CCc3ccccc32)c1=O    -2.52%
20. Cc1cc(CN2CC[C@H]3C(=O)N(c4cccnc4)CCO[C@H]3C2)no1    -4.94%
21. Cn1cc(CN2CCCC3(CCN(c4cccnc4)C3=O)C2)cn1 (stereo not drawn)    20%
22. O=C(c1cn(-c2cccc(Cl)c2F)nn1)N1CCCSCC1    -13.2%
23. CN1CC(C(=O)NCc2ccnc(-n3cccn3)c2)CC1=O (stereo not drawn)    -22.4%
24. CC(c1cncs1)N(C)Cc1ccc(CCC(C)(C)O)cc1 (stereo not drawn)    -5.33%
25. Cc1cc(C(=O)N(CC(=O)O)CC(C)C)ccc1F    -7.96%
26. CCC(CCO)NS(=O)(=O)c1ccc(Br)cn1 (stereo not drawn)    -0.693%
27. Cc1cc(CN(CCO)c2ccccc2)on1    0.618%
28. CCc1n[nH]c(C2CN(CCS(C)(=O)=O)CCO2)n1 (stereo not drawn)    -0.712%
29. CNc1nccc(C2CCCCN2Cc2cnn3cccnc23)n1 (stereo not drawn)    -9.3%
30. O=C(O)c1cccc(C2CCCN(S(=O)(=O)C3CC3)C2)c1 (stereo not drawn)    -10.8%
31. Cc1ccccc1NC(=O)NCC(C)(O)c1cccs1 (stereo not drawn)    4.31%
32. CN1CCCC1c1ccc(N2CCOCC2)cn1 (stereo not drawn)    -16.8%
33. C[C@H]1CN(C(=O)c2cccc(F)c2Cl)CCN1S(C)(=O)=O    -95.8%
34. COc1ccc(-c2noc(Cn3cc4c(n3)CCC4)n2)c(OC)c1OC    -2.31%
35. Cc1cccc(C(=O)N2CCn3cc(CN4CCCCC4)nc3C2)n1    -10.3%
36. CCC(=O)N1CCCCC1c1nc(O)c2c(n1)CN(S(=O)(=O)CC)CC2 (stereo not drawn)    -13.9%
37. CC(C)c1nc(CN2CCOC(CNc3cccnn3)C2)cs1 (stereo not drawn)    -8.93%
38. CNc1cncc(C2CCN(C(=O)c3coc(C)n3)CC2)n1    24.2%
39. Cc1ccc(F)c(C(=O)Nc2c(C(N)=O)n[nH]c2C)c1    -10.1%
40. CCN1CCCC(O)(c2nc(C)c(CCOc3ccc(F)cc3)s2)CC1 (stereo not drawn)    13.4%
41. CCC(O)Cn1nc(CCSC)nc1-c1ccc2c(c1)OCCO2 (stereo not drawn)    15.5%
42. COCC(=O)N1CC(c2csc(NC(C)=O)n2)C1    -3.83%
43. CN(C)c1ccc(NC(=O)C2CN(Cc3ccccc3)CCO2)cn1 (stereo not drawn)    -3.21%
44. N[C@@H](Cc1ccccc1)c1nnc(S(=O)(=O)Cc2cccc(Cl)c2)o1    13.5%
45. OC(COc1ccc2c(c1)OCO2)CN1CC(n2cccn2)C1 (stereo not drawn)    -3.37%
46. CNC(=O)CN1CCC(NC(=O)N(C)Cc2cc(C)on2)CC1    -10.8%
47. CC(C)NC(=O)NCc1ccc(C(=O)NC(C)Cn2cccn2)cc1 (stereo not drawn)    -13.2%
48. CN(C)c1cc(C(F)(F)F)cc(-c2ccc(C(=O)O)cc2)n1    -6.98%
